system: human cervical squamous cell carcinoma cell line SiHa; experiment: CCK-8 cytotoxicity assay, SiHa cells; format: cell-based; conditions: CCK-8, 48 h incubation, mean ± SD, n = 3
assay readout: IC50 (nM)
Report the figure in nM without appending any unit label.

Let me know recorded IC50 for O=C(Nc1ccc(C(=O)/C=C/c2cc(F)cc(F)c2)cc1)Nc1ccc(Cl)c(C(F)(F)F)c1 [Compound 2l] , thanks.
1250

----------
Measured IC50 values are reported for all entries that follow.
tested on: human cervical squamous cell carcinoma cell line SiHa; assay: CCK-8 cytotoxicity assay, SiHa cells; assay type: cell-based; conditions: Homo sapiens, SiHa; CCK-8, 48 h incubation, mean ± SD, n = 3

Illustrative cases are given below, each with its answer.
item_smiles=Cc1ccc(/C=C/C(=O)c2ccc(NC(=O)Nc3ccc(Cl)c(C(F)(F)F)c3)cc2)cc1 result="6.03 µM"
item_smiles=COc1cc(/C=C/C(=O)c2ccc(NC(=O)Nc3ccc(Cl)c(C(F)(F)F)c3)cc2)cc(OC)c1O result="2.22 µM"
item_smiles=O=C(Nc1ccc(C(=O)/C=C/c2ccc(O)c(O)c2)cc1)Nc1ccc(Cl)c(C(F)(F)F)c1 result="2.53 µM"

Let me know recorded IC50 for `COc1cc(/C=C/C(=O)c2ccc(NC(=O)Nc3ccc(Cl)c(C(F)(F)F)c3)cc2)cc(OC)c1OC` , thanks.
4.89 µM
